- Tested on: SK-MEL-28 melanoma
- experiment: NCI-60 one-dose screen, 48 h (100 = growth as untreated, 0 = no growth, -100 = all killed)
- condition_set: 10 µM unless noted
Compounds without any hit were thinned out: in the full panel of roughly 83,000, 20% have a hit. The source made the active and inactive calls. The calls were made as follows: active = growth percent below 10; inactive = the rest.
Some molecules, each annotated with its measured growth.

Consider the following illustrative entries.
1) CCN(CC)c1nc(SCc2ccccc2Cl)ncc1C; 118% (inactive)
2) O=CC1(C2(C=O)c3ccccc3-c3ccccc32)c2ccccc2-c2ccccc21; -38.2% (active)
3) CCOC(=O)c1cc(-c2ccc([N+](=O)[O-])cc2)n(-c2ccc(C(=O)O)c(O)c2)c1C; 90.5% (inactive)
4) CC1Cc2c(Cl)ncnc2N(C)c2ccc(F)cc21 (stereo not given); 86.5% (inactive)
5) Cc1nc2ncnc(Cl)c2[nH]1; 115% (inactive)
6) CC/C(=C(/c1ccc(Cl)cc1)c1ccc(OCCN2CCCC2)cc1)c1ccc(OC)cc1; 85% (inactive)
7) CN([O-])c1nc(N(C)[O-])nc(N2CCOCC2)n1.CN([O-])c1nc(N(C)[OH2+])nc(N2CCOCC2)n1.[Fe+3]; -26.4% [100 µM] (active)
8) CN(C)CCNc1nc2c3cc(Cl)ccc3nn2c2ccccc12; 96.3% (inactive)

Provide SK-MEL-28 melanoma growth reading for COc1cc(/C=C/C(=O)c2cccc(Nc3nc(Nc4ccccc4)nc(Nc4ccccc4)n3)c2)cc(OC)c1OC .
68.9% (inactive)

Provide SK-MEL-28 melanoma growth reading for O=c1c2cc(-c3ccccc3)sc2nc2sc(-c3ccccc3)nn12 .
107% (inactive)

* * *

- Tested on: COLO 205 colon
- experiment: NCI-60 one-dose screen, 48 h
- condition_set: 10 µM unless noted
About 83,000 compounds went through this panel and 20% of them were active in at least one assay; those are over-represented in the sample as a whole. Calls of active or inactive are those of the source. Rule for the calls: active = growth percent below 10; inactive = the rest.
Write down one outcome, taken from t (active), f (inactive)

1) O=c1oc2ccc([N+](=O)[O-])cc2cc1Br; f
2) N=C(N)c1ccc(-c2ccc(-c3cc(Cl)cc(Cl)c3)o2)o1; t
3) Cn1cc(-c2csc(-c3c[nH]c4ccc(Br)cc34)n2)c2cnccc21; t
4) CC12CCC3c4ccccc4CCC3(CO1)C2 (stereo unspecified); f
5) CCCC(O)Cn1ncc(C(=O)OCC)c1NC(=O)NCc1ccccc1F (stereo unspecified); f
6) CCOC(=O)c1cnc2ccccc2c1Cl; f
7) O=C(O)CCCN1C(=O)/C(=C/C(Cl)=C/c2ccccc2)SC1=S; f
8) O=S(=O)(NCCNc1nccc(-c2c(-c3cccc(F)c3)nc3occn23)n1)c1ccc(Br)cc1; f

Please state the recorded outcome for this compound: COc1ccc(/C=C2\COc3ccc(O)c(O)c3C2=O)cc1
f

Please state the recorded outcome for this compound: CCOC(=O)C1=NN(c2ccccc2)C(=O)/C1=C\N1C(=O)CC(=O)NC1=S
f

Please state the recorded outcome for this compound: Cc1ccc(-c2cc(-c3ccc(Cl)cc3)nc(NC(=O)c3cccnc3)n2)cc1
f

* * *

- Test system: SW-620 colon
- experiment: NCI-60 one-dose screen, 48 h
- condition_set: 10 µM unless noted
Compounds without any hit were thinned out: in the full panel of roughly 83,000, 20% have a hit. The source made the active and inactive calls. The calls were made as follows: active = growth percent below 10; inactive = the rest.
Write down one outcome, taken from true (1) = active, false (0) = inactive

1) C=C1C(=O)O[C@H]2[C@H]1CC/C(COC(=O)CCSCCC(=O)OC/C1=C/CC[C@@]3(C)O[C@H]3[C@H]3OC(=O)C(=C)[C@@H]3CC1)=C\CC[C@@]1(C)O[C@@H]21; true (1)

Please state the recorded outcome for this molecule: COc1cc(-c2cc(-c3ccc(N(C)C)cc3)nc(N3CCC(O)CC3)c2C#N)cc(OC)c1OC
false (0)

Please state the recorded outcome for this molecule: CC(C)c1ccc(COCc2cc(CN3CCCC3)c(O)c3ncccc23)cc1
true (1)

Please state the recorded outcome for this molecule: O=C1/C(=C/c2ccc(Cl)cc2)COc2ccc(O)cc21
true (1)
